These measurements were taken from PubChem BioAssay.

assay: anti-His antibody binders, primary screen, artefact control for SMM control protein annotation, biochemical, small-molecule microarray, 635 nm fluorescence (AID 1128); conditions: anti-His Alexa647 antibody binding, higher = more signal;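 further: score merges feature fluorescence with signal-to-noise for each printed compound spot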
Would you mind telling me the reported composite z-score of each entry?
Lab note: record just the number, no unit beside it.

Q: What measured composite z-score goes with C=CCNC(=O)[C@H]1[C@@H]2C(=O)O[C@@H](c3ccccc3)[C@@H](c3ccccc3)N2[C@@H](c2ccc(OCCO)cc2)[C@]12C(=O)N(C(=O)OCCOC)c1ccc(C#Cc3ccc(OC)cc3)cc12 ?
Ans: 1.25

Q: Fill blank: measured composite z-score of the compound CC(C)(C)OC(=O)CC[C@]12N=C(c3ccc(OCCCO)cc3)O[C@H]1c1ccccc1N(Cc1ccccc1)C2=O is ____.
Ans: 1.6

Q: // lookup composite z-score for CCOC(=O)C1=CC[C@@H](c2ccccc2)N(S(=O)(=O)c2ccc(C)cc2)[C@H]1c1cccc(OC)c1
Ans: 0.741

Q: Bench note: what composite z-score did C=CCNC(=O)[C@H]1[C@@H]2C(=O)O[C@@H](c3ccccc3)[C@@H](c3ccccc3)N2[C@@H](c2ccc(O)cc2)[C@]12C(=O)N(C(=O)OCCOC)c1ccc(C#CCC(C(=O)OC)C(=O)OC)cc12 show?
Ans: 0.724

Q: I am curious: what composite z-score value has been reported for C=C(COC)/C(=C/C[C@H](OC(C)=O)c1cccc(OCCO)c1)c1cnc2ccccc2c1 ?
Ans: 0.18

Q: Value lookup for composite z-score; key = CCc1cccc(NC(=O)O[C@H]2[C@H](OC(=O)Nc3ccccc3)[C@H](OC(=O)Nc3ccccc3)[C@@H](OC)O[C@@H]2CO)c1
Ans: 1.14

Q: Looking for the measured composite z-score of CCOC(=O)C[C@H]1[C@H](OC(=O)c2cc3ccccc3oc2=O)[C@@H](NC(=O)c2ccc3ccccc3c2)c2cc(OCCCO)ccc2N1C(=O)Cc1ccc(OC)cc1 , can you help?
Ans: -0.017

Q: I would be grateful if you could share the reported composite z-score for Cc1cccc([C@H]2C[C@H]3C(I)=C[C@@H]2C(=O)[C@]32CO2)c1 .
Ans: 0.0509

====

For each entry below, report its z-score value.
assay: modulators of HCV replicon luciferase signal, primary screen, HCV replication inhibitor project, Huh7 cells, luciferase reporter (AID 1109); conditions: 48 h, higher = more signal;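 further: huh7 hepatoma cells harbouring a luciferase neomycin HCV replicon reporter; luciferase luminescence as measure of HCV replicon replication; test concentration not given here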
Answer with the value's number alone.

Q: For the compound shown here, CN1C(=O)C2C(C1=O)C1C=C(CCCO)C2C(c2cccs2)N1Cc1cc2c(cc1Br)OCO2 (centres undefined) , give the reported z-score.
Ans: -1.22

Q: # get_value(readout='z-score', item= O=C1C2C=CC(C(O)C=Cc3ccc([N+](=O)[O-])cc3)N(Nc3ccccc3)C2C(=O)N1c1ccccc1 (centres undefined) )
Ans: -0.486

Q: Give its z-score value. Item: C[C@@H]1ON(c2ccc(I)cc2)[C@H](c2ccc(OC(=O)OC(C)(C)C)cc2)[C@H]1C(=O)N1C(=O)OC[C@H]1Cc1ccccc1
Ans: -1.12

Q: What value of z-score has been recorded for this entry: C=CCN1C(=O)[C@]2(O[C@H](CCO)[C@@H]([Si](C)(C)c3ccc(OC)cc3)[C@@H]2C)c2cc(N3C(=O)COc4ccccc43)ccc21
Ans: -5.2
